- MEASURED_TARGET: T1, GST-ZO-1 PDZ domain 1 (Rattus norvegicus (Rat)), A0A0G2
- T1 chain: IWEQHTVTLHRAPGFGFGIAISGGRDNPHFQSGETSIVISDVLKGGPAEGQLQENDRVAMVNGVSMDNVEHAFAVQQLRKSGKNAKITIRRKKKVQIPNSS
- METHOD_SUMMARY: G assay titration, PDZ 5 ug/ml
MEASURED_ATTRIBUTE: Kd

Read the entry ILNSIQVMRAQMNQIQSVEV (modifications not checked) [ephrin B2] and write its reported Kd. 6 µM
